system: Expi293 cells; test: Measurement of the Cell Association of Helicons (mass spectrometry quantification in cells after treatment and wash); type: cell-based; conditions: percentage of Helicons in cells after treatment and wash, 22 hours, n = 2, mean ± SD
Peptide text beside a SMILES is read from it. * marks the point of attachment. 5FAM = O=C1OC2(c3ccc(O)cc3Oc3cc(O)ccc32)c2ccc(C(=O)*)cc21
Helicon in cells ± SD (%) values by entry
measurement name: Helicon in cells ± SD (%)

{"molecule": "CC(=O)N[C@@H](CC(C)C)C(=O)N[C@H](C(=O)N[C@@H](Cc1ccccc1)C(=O)N[C@]1(C)CCCCCCC=CCCC[C@@](C)(C(=O)N[C@@H](CO)C(=O)N[C@@H](C)C(=O)N[C@@H](C)C(N)=O)NC(=O)[C@H](CC2CCC2)NC(=O)[C@H](CCC(N)=O)NC(=O)[C@H](C)NC(=O)[C@H](Cc2c[nH]c3ccccc23)NC(=O)[C@H](Cc2ccc(O)cc2)NC(=O)[C@H](CCC(=O)O)NC1=O)[C@@H](C)O [FP01413, reference compound]", "measurement name": "Helicon in cells ± SD (%)", "measured": 3.7}
{"molecule": "CCCC[C@H](NC(=O)[C@@H](NC(C)=O)C(C)C)C(=O)N[C@@H](CCC(=O)O)C(=O)N[C@]1(C)CCCCCCC=CCCC[C@@](C)(C(=O)N[C@@H](Cc2c[nH]cn2)C(=O)N[C@@H](Cc2ccc(O)cc2)C(=O)N[C@H](C(N)=O)C(C)C)NC(=O)[C@H]([C@@H](C)CC)NC(=O)[C@H](Cc2ccccc2)NC(=O)[C@H](C)NC(=O)[C@H](C)NC(=O)[C@H](CCC(N)=O)NC(=O)[C@H](Cc2ccc(O)cc2)NC1=O (single isomer, unassigned) [FP07868]", "measurement name": "Helicon in cells ± SD (%)", "measured": 10.3}
{"molecule": "CC(C)C[C@H](NC(=O)[C@H](C)NC(=O)CNC(=O)[C@H](CCCCN)NC(=O)[C@H](CCCNC(=N)N)NC(=O)[C@H](C)NC(=O)[C@H](Cc1ccccc1)NC(=O)[C@H](CCCNC(=N)N)NC(=O)[C@H](CCC(N)=O)NC(=O)c1ccc2c(c1)C(=O)OC21c2ccc(O)cc2Oc2cc(O)ccc21)C(=O)N[C@@H](CCCNC(=N)N)C(=O)N[C@@H](CCC(N)=O)C(=O)N[C@@H](CCCCN)C(=O)N[C@@H](CC(N)=O)C(=O)N[C@H](C(N)=O)C(C)C [FP47831, reference compound] (5FAM-QRFARKGALRQKNV-NH2)", "measurement name": "Helicon in cells ± SD (%)", "measured": 0.0}
